Cholinesterase (Homo sapiens, UniProt P06276) pIC50 data
Sequence (P06276 whole entry): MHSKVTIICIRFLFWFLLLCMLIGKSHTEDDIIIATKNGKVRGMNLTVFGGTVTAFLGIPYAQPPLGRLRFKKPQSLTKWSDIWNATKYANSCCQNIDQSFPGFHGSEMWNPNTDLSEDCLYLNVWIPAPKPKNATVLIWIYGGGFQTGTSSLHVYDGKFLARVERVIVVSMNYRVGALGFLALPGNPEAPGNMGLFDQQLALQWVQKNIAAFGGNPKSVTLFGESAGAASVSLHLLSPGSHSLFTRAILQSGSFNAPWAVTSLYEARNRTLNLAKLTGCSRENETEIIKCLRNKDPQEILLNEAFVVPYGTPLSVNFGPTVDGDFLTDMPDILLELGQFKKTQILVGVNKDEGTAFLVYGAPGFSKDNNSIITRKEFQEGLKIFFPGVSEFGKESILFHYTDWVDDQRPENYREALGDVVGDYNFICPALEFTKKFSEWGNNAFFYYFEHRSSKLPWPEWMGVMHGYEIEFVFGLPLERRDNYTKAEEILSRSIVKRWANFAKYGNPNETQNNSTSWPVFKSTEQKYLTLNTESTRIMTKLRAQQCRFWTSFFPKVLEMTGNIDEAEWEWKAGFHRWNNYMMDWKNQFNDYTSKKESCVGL
// pIC50: -log10(molar conc.)

Past entries and their recorded results:
smiles: O=C(NP(=O)(NN1CCCCC1)NN1CCCCC1)c1ccccc1
tested_target: Cholinesterase (Homo sapiens, UniProt P06276)
pIC50: 3.37

smiles: O=C(NP(=O)(NN1CCOCC1)NN1CCOCC1)c1ccccc1
tested_target: Cholinesterase (Homo sapiens, UniProt P06276)
pIC50: 2.67

For the compound `O=P(O)(NN1CCCCC1)Oc1ccccc1` , what pIC50 is on record?
2.80

Requested field: pIC50. Item: `O=P(NN1CCOCC1)(NN1CCOCC1)Oc1ccccc1`
2.79

Which pIC50 value is on record for `O=P(NN1CCOCC1)(NN1CCOCC1)c1ccccc1` ?
2.61

---

- Tested on: Bacillus subtilis
- experimental_details: Antibacterial activity against Bacillus subtilis at 10 mg/ml after 20-24 hrs by filter paper disc method
- Assay type: functional
- measurement_conditions: read-out: DIZ
Property: zone of inhibition at 10000 µg/mL; scope: individual molecules
The reply should contain only the number, in mm.

Check out these entries, answers already filled in.
smiles: Cc1ccc(OP(=O)(NN2CCOCC2)NN2CCOCC2)cc1
zone of inhibition at 10000 µg/mL (mm): 18
--
smiles: O=C(NP(=O)(NN1CCOCC1)NN1CCOCC1)c1ccc(Cl)cc1
zone of inhibition at 10000 µg/mL (mm): 12
--
smiles: O=P(O)(NN1CCCCC1)Oc1ccccc1
zone of inhibition at 10000 µg/mL (mm): 15
--
smiles: O=C(NP(=O)(NN1CCCCC1)NN1CCCCC1)c1ccccc1
zone of inhibition at 10000 µg/mL (mm): 19

Quick one: zone of inhibition at 10000 µg/mL of `O=C(NP(=O)(NN1CCOCC1)NN1CCOCC1)c1ccccc1` ?
13

Report zone of inhibition at 10000 µg/mL for `COc1ccc(C(=O)NP(=O)(NN2CCOCC2)NN2CCOCC2)cc1` please.
13

Requested read-out: zone of inhibition at 10000 µg/mL. Entry: `O=P(NN1CCCCC1)(NN1CCCCC1)Oc1ccccc1`
13

What value of zone of inhibition at 10000 µg/mL has been recorded for this entry: `O=C(N[C@H](CO)[C@H](O)c1ccc([N+](=O)[O-])cc1)C(Cl)Cl`
17

---

The following are reported IC50 results, target or system Acetylcholinesterase (Homo sapiens).
Record the value in mM, omitting the unit from your answer.

smiles: O=C(NP(=O)(NN1CCOCC1)NN1CCOCC1)c1ccccc1
IC50 (mM): 18.6

Lookup: IC50 / Acetylcholinesterase (Homo sapiens) / `O=C(NP(=O)(NN1CCCCC1)NN1CCCCC1)c1ccccc1`
1.95

Form entry - test system: Acetylcholinesterase (Homo sapiens); read-out: IC50; compound: `O=P(O)(NN1CCCCC1)Oc1ccccc1`
Sequence (P22303 whole entry): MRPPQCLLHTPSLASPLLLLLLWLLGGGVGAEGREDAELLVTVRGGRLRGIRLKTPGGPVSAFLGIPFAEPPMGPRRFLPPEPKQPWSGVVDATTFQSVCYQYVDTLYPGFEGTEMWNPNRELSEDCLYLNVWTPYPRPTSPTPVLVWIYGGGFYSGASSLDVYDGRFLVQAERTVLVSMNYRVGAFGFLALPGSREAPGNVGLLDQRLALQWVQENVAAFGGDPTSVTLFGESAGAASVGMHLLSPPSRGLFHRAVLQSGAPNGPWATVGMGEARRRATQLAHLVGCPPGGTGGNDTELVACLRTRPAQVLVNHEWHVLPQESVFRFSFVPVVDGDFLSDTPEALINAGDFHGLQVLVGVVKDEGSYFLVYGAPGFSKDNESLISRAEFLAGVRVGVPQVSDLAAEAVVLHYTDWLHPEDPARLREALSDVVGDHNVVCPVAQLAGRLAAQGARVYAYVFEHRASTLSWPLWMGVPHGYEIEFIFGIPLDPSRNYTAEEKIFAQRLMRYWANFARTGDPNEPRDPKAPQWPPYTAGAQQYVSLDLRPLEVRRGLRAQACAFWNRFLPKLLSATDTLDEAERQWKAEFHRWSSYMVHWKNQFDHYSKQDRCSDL
5.49

Query for Acetylcholinesterase (Homo sapiens): what IC50 does the record show for `O=P(NN1CCOCC1)(NN1CCOCC1)Oc1ccccc1` ?
9.55

---

- experimental_details: Lipophilicity, log P of the compound
- Format: physicochemical
- measurement_conditions: octanol/water
# if value of logP reaches -0.5, tag y; if it stays below, tag n

A selection of reference data follows.
smiles: O=P(O)(NN1CCCCC1)Oc1ccccc1
label: y

smiles: O=P(NN1CCOCC1)(NN1CCOCC1)c1ccccc1
label: n

smiles: O=P(NN1CCOCC1)(NN1CCOCC1)Oc1ccccc1
label: n

smiles: O=C(NP(=O)(NN1CCCCC1)NN1CCCCC1)c1ccccc1
label: y

Would you kindly look at the next entry?
Item `O=C(NP(=O)(NN1CCOCC1)NN1CCOCC1)c1ccccc1` with logP of -0.5 or above?
n
